Below, each of the compounds is paired with its reported IC50 value.
# Test system: Plasmodium falciparum
# Method summary: In vitro anti-protozoan data, P. f.
# Format: cell-based
# Experimental context: in vitro; read-out: P. f. IC50
Measured attribute: IC50 (nM)

- Molecular string: "N=C(N)c1ccc(-c2ccc(-c3ccc(C(=N)N)cn3)o2)nc1"
  Scale unit: "nM"
  Value measured: 83
- Molecular string: "N=C(N)c1ccc(-c2ccc(-c3ccc(C(=N)N)nc3)o2)cc1"
  Scale unit: "nM"
  Value measured: 18.3
- Molecular string: "CONC(=N)c1ccc(-c2ccc(-c3ccc(C(=N)NOC)cn3)s2)cc1"
  Scale unit: "nM"
  Value measured: 133
